- targetEntity: muscle-type nicotinic acetylcholine receptor (α1, β1, δ and ε-subunits) (Homo sapiens, UniProt P02708+Q04844+Q07001)
- Sequence (P02708 21-457): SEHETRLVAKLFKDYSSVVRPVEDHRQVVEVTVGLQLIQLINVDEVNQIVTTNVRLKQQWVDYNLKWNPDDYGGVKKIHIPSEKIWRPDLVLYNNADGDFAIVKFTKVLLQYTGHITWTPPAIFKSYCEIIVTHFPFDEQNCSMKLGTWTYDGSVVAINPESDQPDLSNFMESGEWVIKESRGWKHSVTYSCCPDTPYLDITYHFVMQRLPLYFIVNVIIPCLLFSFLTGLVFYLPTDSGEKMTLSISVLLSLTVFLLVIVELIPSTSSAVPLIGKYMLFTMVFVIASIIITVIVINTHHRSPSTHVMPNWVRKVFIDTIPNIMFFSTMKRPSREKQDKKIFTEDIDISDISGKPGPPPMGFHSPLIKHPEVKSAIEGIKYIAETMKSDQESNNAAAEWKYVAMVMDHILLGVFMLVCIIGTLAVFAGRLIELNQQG
- Sequence (Q04844 21-493): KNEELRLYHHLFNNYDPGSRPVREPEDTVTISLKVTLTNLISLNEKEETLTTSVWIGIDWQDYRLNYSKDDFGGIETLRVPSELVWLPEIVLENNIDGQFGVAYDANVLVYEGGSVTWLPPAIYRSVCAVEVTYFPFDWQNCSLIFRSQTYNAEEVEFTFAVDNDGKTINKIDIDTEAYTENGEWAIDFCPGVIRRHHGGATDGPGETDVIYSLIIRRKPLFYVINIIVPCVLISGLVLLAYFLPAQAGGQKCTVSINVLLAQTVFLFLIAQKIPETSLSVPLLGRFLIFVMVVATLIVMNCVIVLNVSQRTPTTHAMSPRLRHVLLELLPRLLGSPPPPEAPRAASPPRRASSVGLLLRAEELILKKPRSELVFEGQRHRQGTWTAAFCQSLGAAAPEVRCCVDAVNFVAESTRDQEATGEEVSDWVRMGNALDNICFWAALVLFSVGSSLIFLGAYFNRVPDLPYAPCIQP
- Sequence (P11230 24-501, further chain): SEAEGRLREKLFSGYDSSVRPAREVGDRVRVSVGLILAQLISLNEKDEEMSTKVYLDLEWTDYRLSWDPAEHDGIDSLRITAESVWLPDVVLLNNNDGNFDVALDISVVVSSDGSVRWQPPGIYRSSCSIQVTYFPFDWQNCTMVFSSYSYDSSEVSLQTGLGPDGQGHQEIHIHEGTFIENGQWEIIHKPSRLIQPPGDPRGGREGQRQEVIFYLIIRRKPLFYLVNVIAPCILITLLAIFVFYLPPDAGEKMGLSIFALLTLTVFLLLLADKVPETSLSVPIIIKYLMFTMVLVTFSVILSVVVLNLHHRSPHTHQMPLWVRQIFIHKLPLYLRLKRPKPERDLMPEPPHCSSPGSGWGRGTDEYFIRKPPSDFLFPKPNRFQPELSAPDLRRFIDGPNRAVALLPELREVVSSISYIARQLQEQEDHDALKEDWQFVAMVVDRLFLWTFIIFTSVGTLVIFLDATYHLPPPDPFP
- Sequence (Q07001 22-517): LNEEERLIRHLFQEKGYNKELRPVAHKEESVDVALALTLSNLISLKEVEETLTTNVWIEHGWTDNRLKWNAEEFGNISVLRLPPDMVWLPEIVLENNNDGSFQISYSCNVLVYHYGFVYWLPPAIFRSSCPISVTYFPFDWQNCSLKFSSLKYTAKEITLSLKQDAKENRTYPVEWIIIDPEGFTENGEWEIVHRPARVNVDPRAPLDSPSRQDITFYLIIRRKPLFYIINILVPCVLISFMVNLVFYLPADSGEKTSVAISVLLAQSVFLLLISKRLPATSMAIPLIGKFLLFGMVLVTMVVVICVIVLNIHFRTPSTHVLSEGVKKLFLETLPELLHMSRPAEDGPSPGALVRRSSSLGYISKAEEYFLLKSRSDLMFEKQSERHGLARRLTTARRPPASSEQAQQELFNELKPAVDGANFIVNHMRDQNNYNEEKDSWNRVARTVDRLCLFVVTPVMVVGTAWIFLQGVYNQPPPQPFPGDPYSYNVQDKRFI
- assayComment: Inhibition of acetylcholine-induced current through muscle-type nAChR expressed in Xenopus laevis oocytes (two-electrode voltage clamp)
Non-standard residues stand in square brackets, D forms with d. Residues, ends and D or L forms follow the SMILES beside them. *: point of attachment. Dab = NCC[C@H](N)C(=O)O; NHBn = c1ccc(CN*)cc1; βAla = NCCC(=O)O
quantity: pIC50
Friendly reminder that pIC50 comes from taking -log10 of the concentration in mol/L.

Find the measured pIC50 of NCCC(=O)N1CCC[C@H]1C(=O)N[C@@H](CCN)C(=O)NCc1ccccc1 [Syn-Ake, H-β-Ala-Pro-Dab-NHBzl] (H-[βAla]-Pro-[Dab]-NHBn) and report it.
3.74

Origin of the recorded values: patent US9550808B2
